biological target: Fuc(a1-3)[GalNAc(b1-4)]GlcNAc; assay: glycan array binding signal (z-score within array); higher = stronger binding; conditions: glycan notation: IUPAC condensed, linker removed
This excerpt belongs to a sample that is enriched for the strongest signals.
observable: glycan array binding signal (z-score)
The answer should be written as a number, with no unit following it.

// worked examples, glycan array binding signal (z-score) included
>>> reported_result("HHA (Hippeastrum hybrid) (protein) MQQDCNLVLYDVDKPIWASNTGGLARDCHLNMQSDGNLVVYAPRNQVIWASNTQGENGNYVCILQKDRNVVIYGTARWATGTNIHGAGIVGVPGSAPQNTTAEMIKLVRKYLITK")
-0.196
>>> reported_result("AT3G09350(27) (Arabidopsis thaliana), Q84J81 (protein) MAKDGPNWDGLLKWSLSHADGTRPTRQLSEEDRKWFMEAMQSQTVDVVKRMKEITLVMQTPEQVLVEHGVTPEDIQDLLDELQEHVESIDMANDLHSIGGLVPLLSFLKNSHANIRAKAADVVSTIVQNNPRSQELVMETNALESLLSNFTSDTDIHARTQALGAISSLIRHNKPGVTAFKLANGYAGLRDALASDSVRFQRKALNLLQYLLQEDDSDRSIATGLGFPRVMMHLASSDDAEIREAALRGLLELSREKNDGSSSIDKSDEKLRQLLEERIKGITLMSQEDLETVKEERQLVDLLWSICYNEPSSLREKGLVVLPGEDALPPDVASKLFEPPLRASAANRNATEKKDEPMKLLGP")
3.56

Next, consider the following binder.
Can you share its glycan array binding signal (z-score)? I mean this binder: CCL2 (Coprinopsis cinerea), B3GA02 (protein) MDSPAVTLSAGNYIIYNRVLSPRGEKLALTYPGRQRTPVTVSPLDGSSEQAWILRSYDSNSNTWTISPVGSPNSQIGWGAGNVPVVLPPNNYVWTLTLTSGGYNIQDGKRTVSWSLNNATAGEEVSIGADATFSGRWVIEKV
4.84
